src = patent US20070066521

- system-name: T1, S-AC4 (SLCMV AC4) (Sri Lankan cassava mosaic virus)
- T1 chain: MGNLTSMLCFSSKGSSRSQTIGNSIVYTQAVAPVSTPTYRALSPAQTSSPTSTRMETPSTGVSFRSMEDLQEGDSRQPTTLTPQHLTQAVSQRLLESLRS
- method-description: EMSA
- measurement-parameters: tags: GST fusion (pET41a), Ni-NTA purified; label: 5'-32P

[
  {
    "binder": "pre-miR159 first strand (ssRNA) RNA: UAAAAAAGGAUUUGGUUAUAUGGAUUGCAUAUCUCAGGAGCUUUAACUUGCCCUGUUAAUGCUUUUACUCUUCUUUGGCUUGAAGGGAGCUCUAC",
    "binding result": "no binding"
  },
  {
    "binder": "TCGGACCAGGCTTCATCCCCC (ssDNA) [DmiR-165 DNA]",
    "binding result": "no binding"
  },
  {
    "binder": "UCCCUGAGACCUCAAGUGUGA (ssRNA) [lin-4]",
    "binding result": "binds"
  }
]
